Tested on: NCI-H522 lung
Test Name: NCI-60 one-dose screen, 48 h (100 = growth as untreated, 0 = no growth, -100 = all killed)
Run Parameters: 10 µM
This is part of a sample that, as a whole, favours compounds with a hit. Of some 83,000 tested, about 20% had one in any assay. Activity calls are given as the source filed them. Rule for the calls: active = growth percent below 10; inactive = the rest.

Compound	growth
O=C1c2ccccc2-c2cn(Cc3ccccc3)c3cccc(c23)C1c1cccnc1 (stereo not given)	-12.4% (active)
COc1cc(-c2nc3ccccc3o2)cc(CN2CCN(c3ccccc3)CC2)c1O	58.4% (inactive)
O=C1/C(=C/c2ccc(Cl)cc2)CN(Cc2cn(CCCNc3ccnc4cc(Cl)ccc34)nn2)C/C1=C\c1ccc(Cl)cc1	-92.8% (active)
COc1ccc(C2CC(c3cc(OC)c(OC)c(OC)c3)=NN2c2ccc(S(N)(=O)=O)cc2)cc1 (stereo not given)	66.9% (inactive)
O=c1[nH]c(=S)c2c(n1CCCO)CCC2	88.4% (inactive)
C[C@H]1C(=O)C23CCC1C[C@@]21O[C@@H]2C(C)(C)C=CC(=O)C23COC1=O	93.2% (inactive)
COc1cccc(C2CC(=O)Nc3cc4c(cc32)OCO4)c1OC (stereo not given)	87.4% (inactive)
Cc1ccc(N(CSc2ccc(Cl)cc2)CSc2ccc(Cl)cc2)cc1	39.3% (inactive)
CCCCCCCC/C=C\CCCCCCCCOc1cccc(CC(=O)NCC[N+]2(C)CCCC2)c1	68.6% (inactive)
COc1cc(C2=NN(c3ccc(S(N)(=O)=O)cc3)C(c3ccc(Cl)cc3)C2)cc(OC)c1OC (stereo not given)	44.9% (inactive)
COc1ccc(-c2nc3sccn3c2/C=C/C(=O)c2cc(OC)c(OC)c(OC)c2)cc1OC	15.3% (inactive)
COc1ccc(Nc2[nH]n(C3=Nc4ccccc4Sc4ccccc43)c(=O)c2C#N)cc1	29.6% (inactive)
CC(=O)OC[C@H](O)[C@@]1(O)CC[C@H]2[C@@H]3CCC4=CC(=O)CC[C@]4(C)[C@H]3[C@@H](O)C[C@@]21C	99.6% (inactive)
CC(=O)OC[C@]1(C)C=C2C(=O)[C@](C)(O)C3(CC3)C(C)=C2[C@H]1OC(C)=O	71.1% (inactive)
CCCC1=NNC(=O)C1	94% (inactive)
Cn1c(=O)c(S(=O)(=O)c2ccccc2)cc2ccc3c(cnn3-c3ccc(Cl)cc3)c21	-18.9% (active)
CCCCCCCC/C=C\CCCCCCCCOc1cccc(CC(=O)NCC[N+](C)(C)C)c1	80.8% (inactive)
COc1ccc(NC(=O)c2ccc3c(c2)nc(-c2ccc(Cl)cc2)n3-c2cc(C(C)(C)C)[nH]n2)cc1	73.7% (inactive)
COc1cccc(C2CC(=O)Nc3cc4c(cc32)CCC4)c1OC (stereo not given)	60.9% (inactive)
O=C1c2ccccc2C(=O)c2c(Nc3ccc(CCO)cc3)ccc(O)c21	71.5% (inactive)

====

System: PC-3 prostate
Test Name: NCI-60 one-dose screen, 48 h
Run Parameters: 10 µM unless noted
This is part of a sample that, as a whole, favours compounds with a hit. Of some 83,000 tested, about 20% had one in any assay. The source made the active and inactive calls. The calls were made as follows: active = growth percent below 10; inactive = the rest.
Outcome codes: TRUE (active), FALSE (inactive)

Molecule	Category Label
COc1cc(C(=O)/C=C/c2c(-c3cccs3)nc3sccn23)cc(OC)c1OC	TRUE
O/N=C/c1cccs1	FALSE
c1ccc(-c2nc(N3CCOCC3)c3c4c(sc3n2)CCCCCC4)nc1	FALSE
CN1CCC(OC2c3ccccc3CCc3ccccc32)CC1	FALSE
COc1cc2cc(Oc3ccc(NC(=O)Nc4ccc(Cl)c(C(F)(F)F)c4)cc3)c(C)nc2cc1OCCN1CCCCC1	TRUE
COc1ccc(/C=C2\Oc3cc(C)c(Cl)cc3C2=O)cc1OC	FALSE
O=C1CC(c2ccsc2)c2snc(-c3ccc(Cl)cc3)c2N1 (stereo unspecified)	FALSE
CCOC(=O)c1sc(NC(=O)CN2CCC(Cc3ccccc3)CC2)nc1C	FALSE
CN1CCN(c2ccc3nc(-c4ccc5nc(-c6ccc(C(F)(F)F)cc6)[nH]c5c4)[nH]c3c2)CC1	FALSE
Cc1ccc(C2SCC(=O)N2NC(=O)c2[nH]c3ccc(F)cc3c2-c2ccccc2)cc1 (stereo unspecified)	FALSE
FC(F)(F)Oc1ccc2c(c1)C[C@H]1C[C@@H](c3ccoc3)N2O1	FALSE
COc1cccc(Nc2nc(NCCO)c3ccccc3n2)c1	FALSE
Cc1ccccc1-n1nnc(C(=O)Nc2nc(-c3ccccc3)c(-c3ccccc3)s2)c1C	FALSE
O=C(Nc1ccccc1)Oc1cccc2cccnc12	FALSE
Cc1nc2nc(C(F)(F)F)[nH]c2nc1C	FALSE
CC1(C)N=C(N)N=C(N)N1c1cccc(/C=C/C=C/c2cccc([N+](=O)[O-])c2)c1	TRUE
CCOC(=O)c1c(-c2cc(OC)c(OC)c(OC)c2)csc1N	FALSE
CC(=O)OC[C@]1(C)C=C2C(=O)[C@](C)(O)C3(CC3)C(C)=C2[C@H]1OC(C)=O	FALSE
N#Cc1ccc(C(F)(F)F)nc1N1CCC(C(=O)Nc2ccc(Cl)cc2)CC1	FALSE
CCOC(=O)C1=C(C)N2C(=NC3=C(CCCC/C3=C\c3ccccc3)C2c2ccccc2)S1 (stereo unspecified)	FALSE
O=c1c2c(=NCCN3CCCC3)cc3c(=O)n(CCCN4CCOCC4)c(=O)c4c(-c5ccc(CN6CCCC6)cc5)cc(c(O)n1CCCN1CCOCC1)c2c4-3	TRUE
